# System: SF-268 CNS
# Assay Procedure: NCI-60 one-dose screen, 48 h
# Measurement Conditions: 10 µM unless noted
The panel holds about 83,000 compounds, 20% with a hit somewhere; the sample as a whole holds those more often. Activity calls are given as the source filed them. How the source made its calls: active means growth percent below 10; inactive means the rest.
Respond only with the outcome that fits, drawn from yes (1) = active, no (0) = inactive

IN: Could you please tell me the result logged for Cc1nc2sc(C(=O)Nc3cccc(Br)c3)c(N)c2cc1C(O)c1ccccc1 (centres undefined) in this assay?
OUT: no (0)

IN: Could you please tell me the result logged for O=C1NC(=O)C(Cc2ccc(OCc3ccc(-c4ccc(Cl)cc4Cl)cc3)cc2)S1 (centres undefined) in this assay?
OUT: no (0)

IN: Could you please tell me the result logged for "CCCCn1c(=O)[nH]c(N)c([C@@H]2c3c([nH]c(=O)n(CCCC)c3=O)Oc3ccc4ccccc4c32)c1=O" in this assay?
OUT: yes (1)

IN: Could you please tell me the result logged for "Cc1ccc(-c2nc(N3CCCNCC3)c3oc(-c4ccc(C)cc4)nc3n2)cc1" in this assay?
OUT: no (0)

====

# System: SF-295 CNS
# Assay Procedure: NCI-60 one-dose screen, 48 h (100 = growth as untreated, 0 = no growth, -100 = all killed)
# Measurement Conditions: 10 µM unless noted
Compounds without any hit were thinned out: in the full panel of roughly 83,000, 20% have a hit. Activity calls are given as the source filed them. The calls were made as follows: active = growth percent below 10; inactive = the rest.
Provide the reported growth of each item.

Quick note, growth for CC1CCN(S(=O)(=O)c2ccc(S(=O)(=O)N3CCCC(c4nc5c(nnn5Cc5cccc(Cl)c5)c(=O)[nH]4)C3)cc2)CC1 (stereo unspecified) landed at 63.6% (inactive)

Quick note, growth for CCN(CC)CC(O)COc1c(Br)c(Br)c(Br)c2c1OC(C)(C)C2 (stereo unspecified) landed at 1.69% (active)

Quick note, growth for CC1=C([Se]CC(OC(=O)CC[Se]c2ccccc2)C(=O)NC(C)(C)C)C(=O)c2ccccc2C1=O (stereo unspecified) landed at -36.2% (active)

Quick note, growth for COC(=O)C1Cc2ccccc2CN1C(=O)c1ccc2c(c1)Cc1ccccc1-2 (stereo unspecified) landed at 30.2% [50 µM] (inactive)

Quick note, growth for "O=C1c2ccc3c4c5ccc(c24)C(=O)N1CCCOCCCCOCCCNCc1ccc(cc1)CNCCCOCCCCOCCCN(C3=O)C5=O" landed at 91.5% (inactive)

Quick note, growth for "NC(=O)c1c(NC(=O)c2ccc3ccccc3c2)sc2c1CCC(=O)C2" landed at 93.4% (inactive)

Quick note, growth for "CSc1nc2ccccc2cc1/C=[N+](\[O-])c1ccccc1" landed at 86.7% (inactive)

Quick note, growth for "COc1ccc(-c2cc(-c3cc(OC)c(OC)c(OC)c3)c(C#N)c(=O)n2CCCCC(=O)NO)cc1" landed at 78.7% (inactive)

Quick note, growth for "Nc1nc(N)c(-c2ccc(Cl)c(Cl)c2)c(CBr)n1" landed at 55.7% (inactive)

Quick note, growth for "c1cnc2c(-c3nc4ccc5[nH]ncc5c4c4c3CCCC4)c[nH]c2c1" landed at 32.1% (inactive)

Quick note, growth for "Nc1n[nH]c2cccc(C#Cc3cccc(C(=O)Nc4cc(C(F)(F)F)cc(C(F)(F)F)c4)c3)c12" landed at 77.9% (inactive)

====

# Test system: OVCAR-3 ovarian
# Assay Procedure: NCI-60 one-dose screen, 48 h (100 = growth as untreated, 0 = no growth, -100 = all killed)
# Measurement Conditions: 10 µM unless noted
The panel holds about 83,000 compounds, 20% with a hit somewhere; the sample as a whole holds those more often.
Endpoint Label: growth (%)
Value expressed in %; do not type the unit.

Value sought: growth, system OVCAR-3 ovarian, item "Fc1cc2c(cc1Cl)N(c1ncnc3ccc(-c4ccc5n[nH]nc5c4)cc13)CC2" . Result: 69

Value sought: growth, system OVCAR-3 ovarian, item CC(=O)N1N=C(c2ccc(Nc3nc(Nc4ccccc4)nc(Nc4ccccc4)n3)cc2)CC1c1ccccc1 (stereo not drawn) . Result: 88.6

Value sought: growth, system OVCAR-3 ovarian, item "Nc1ncnc2c1c(-c1cccc(Cl)c1)nn2CC(=O)N1CCOCC1" . Result: 106

Value sought: growth, system OVCAR-3 ovarian, item "C=CCn1c(SCC(=O)Nc2ccc(C(=O)/C=C/c3ccc(Cl)cc3)cc2)nnc1-c1ccc(Br)cc1" . Result: 85.5

Value sought: growth, system OVCAR-3 ovarian, item "Nc1n[nH]c2cccc(C#Cc3cccc(C(=O)Nc4cc(C(F)(F)F)cc(C(F)(F)F)c4)c3)c12" . Result: 90.6

Value sought: growth, system OVCAR-3 ovarian, item COC(=O)Nc1nc2ccc(S(=O)c3ccccc3)cc2[nH]1 (stereo not drawn) . Result: 57.9

Value sought: growth, system OVCAR-3 ovarian, item "O=C(Nc1nc2cc(C(=O)N3CCN(C(c4ccccc4)c4ccccc4)CC3)ccc2o1)c1ccc(NC2CCCCC2)c([N+](=O)[O-])c1" . Result: 52.8

Value sought: growth, system OVCAR-3 ovarian, item "CC(=O)n1nc(C(=O)OC(C)(C)c2ccccc2)c2ccccc21" . Result: 101

====

Provide the reported growth of each item.
# Test system: SK-OV-3 ovarian
# Assay Procedure: NCI-60 one-dose screen, 48 h (100 = growth as untreated, 0 = no growth, -100 = all killed)
# Measurement Conditions: 10 µM unless noted
About 83,000 compounds went through this panel and 20% of them were active in at least one assay; those are over-represented in the sample as a whole.
Value expressed in %; do not type the unit.

Quick note, growth for "COc1ccc(/C=C/C(=O)c2ccc(Nc3ccnc4cc(Cl)ccc34)cc2)cc1" landed at 111

Quick note, growth for "NC(N)=NCCCCCNc1noc(Cc2c[nH]c3cc(Br)ccc23)n1" landed at 83.7

Quick note, growth for "COc1ccc(Nc2nc(-c3cc(O)c(C)c(C)c3O)cs2)cc1" landed at 71.3

Quick note, growth for "NC(=O)CSc1oc(-c2ccccc2)nc1S(=O)(=O)c1ccc(Br)cc1" landed at 88.3

Quick note, growth for "CSc1nc2ccccc2cc1/C=C1/C=C(c2ccccc2)NC1=O" landed at 85.1

Quick note, growth for "CN1C(=O)/C(=C\c2c(Cl)cccc2Cl)c2ccccc21" landed at 99.2

Quick note, growth for "Cc1csc(Nc2nc(-c3ccccn3)nc(C(Cl)(Cl)Cl)n2)n1" landed at 97.8

Quick note, growth for "O=C(CSc1nc2ccc([N+](=O)[O-])cc2[nH]1)Nc1ccc([N+](=O)[O-])cc1" landed at 27

Quick note, growth for "O=C(COc1ccc(-c2nc3cc(Cl)c(Cl)cc3[nH]2)cc1)N=Nc1c(O)[nH]c2ccc(Cl)cc12" landed at 84.5

Quick note, growth for "Cc1c[n+](Cc2ccc3ccccc3c2)cn1Cc1ccc2ccccc2c1" landed at 35.3

Quick note, growth for "C#Cc1c2c(c(OC)c3c1OCO3)[C@H]([C@H]1OC(=O)c3c1ccc(OC)c3OC)N(C)CC2" landed at 89.5

Quick note, growth for "Oc1c(Br)cc(Br)c2ccc(Cn3cc(-c4ccc(C(F)(F)F)cc4)nn3)nc12" landed at 110

Quick note, growth for "CCN(CC)S(=O)(=O)c1ccc(S(=O)(=O)N2CCC[C@@H](C(=O)N3CCN(c4nc(C(C)C)no4)CC3)C2)cc1" landed at 87.3

Quick note, growth for "c1csc(-c2ccc(CNc3c4ccccc4nc4ccccc34)cc2)c1" landed at 65

====

# System: ACHN renal
# Assay Procedure: NCI-60 one-dose screen, 48 h
# Measurement Conditions: 10 µM unless noted
This is part of a sample that, as a whole, favours compounds with a hit. Of some 83,000 tested, about 20% had one in any assay. Activity calls are given as the source filed them. The calls were made as follows: active = growth percent below 10; inactive = the rest.
Respond only with the outcome that fits, drawn from active, inactive

IN: Could you please tell me the result logged for "C=CCn1c(C)nc2ccc(Nc3nc(Nc4ccc5nc(C)n(CC=C)c5c4)c4ccccc4n3)cc21" in this assay?
OUT: active

IN: Could you please tell me the result logged for "CC1(C)COB(OCC(C)(C)COB2OCC(C)(C)CO2)OC1" in this assay?
OUT: inactive

IN: Could you please tell me the result logged for "Nc1nc2ccc(-c3nc4ccc5[nH]ncc5c4c4c3CCCC4)cc2s1" in this assay?
OUT: inactive

IN: Could you please tell me the result logged for "OCCn1cc(-c2nc(-c3c[nH]c4ncccc34)cs2)c2ccccc21" in this assay?
OUT: inactive

IN: Could you please tell me the result logged for "COC(=O)c1c(C)nc(C)c2c1C(=O)C(Br)=C(NCc1ccccc1)C2=O" in this assay?
OUT: inactive

IN: Could you please tell me the result logged for "CNc1nnc2n(-c3ccccc3)c(=O)c3cnn(-c4ccccc4)c3n12" in this assay?
OUT: inactive

IN: Could you please tell me the result logged for "Cc1cc(S(=O)(=O)/N=C(\N)n2nc(C)c(C)c2C)c(SCc2ccccc2)cc1Cl" in this assay?
OUT: inactive

IN: Could you please tell me the result logged for "Cc1ccc(-c2nc(N3CCCNCC3)c3oc(-c4ccc(C)cc4)nc3n2)cc1" in this assay?
OUT: active

IN: Could you please tell me the result logged for N#CC1=C(N)Oc2c(ccc3ccccc23)C1c1ccccc1 (stereo unspecified) in this assay?
OUT: inactive

IN: Could you please tell me the result logged for "O=C1C(Cl)=C(NCCCCCCNC2=C(Cl)C(=O)c3ccccc3C2=O)C(=O)c2ccccc21" in this assay?
OUT: inactive

IN: Could you please tell me the result logged for "CC(C)c1ccc(-n2c(=S)[nH]c3sc4cc(O)ccc4c3c2=O)cc1" in this assay?
OUT: inactive

IN: Could you please tell me the result logged for CCN1C(=S)N(c2ccccc2)C2NC(=S)N(/N=C/C=C/c3ccccc3OC)C21 (stereo unspecified) in this assay?
OUT: inactive

IN: Could you please tell me the result logged for "O=S(=O)(NCCCNc1nccc(-c2c(-c3ccc(F)c(O)c3)nc3sccn23)n1)c1ccccc1" in this assay?
OUT: inactive

IN: Could you please tell me the result logged for CC1(C)CC(=O)C2=C(C1)N(c1ccc(OC(F)(F)F)cc1)C(N)=C(C#N)C2c1ccc(Br)cc1F (stereo unspecified) in this assay?
OUT: inactive

IN: Could you please tell me the result logged for "COC1=CC(c2ccc[nH]2)=N/C1=C\c1[nH]c(C)c(CC(=O)NCc2ccccc2)c1C" in this assay?
OUT: active

IN: Could you please tell me the result logged for "O=c1[nH]c(Cc2nc3ccccc3s2)nc2cc(Br)ccc12" in this assay?
OUT: inactive
